measurementLabel: melting point

compound	recordedValue
Cc1noc(NS(=O)(=O)c2ccsc2C(=O)NCc2ccccc2)c1Br	186 to 190 °C
Nc1nc(Cl)cc(NCC2(CO)CC(=O)C2)n1	171 to 173 °C
CCc1nn(CCN)c(CO)c1Oc1cc(Cl)cc(Cl)c1	105 to 107 °C
CC(=O)OCCc1c([N+](=O)[O-])cc(OCc2ccccc2)c2ccccc12	82 to 87 °C
COC(=O)c1c(S(=O)(=O)NC(=O)Nc2nc(OC)cc(OC)n2)ccn1C	182 to 186 °C
O=CN(Cn1cc(Cl)cnc1=O)c1ccccc1	200 °C
COc1ccc2[nH]c(SCc3ncnc(N4CCCC4)c3C)nc2c1	104 to 106 °C
COc1ccc(C(=O)c2c(N)sc3c2CCN(C(=O)c2ccccc2)C3)cc1OC	143 to 145 °C
Nc1ccc(-c2noc(-c3cnn4c(C(F)(F)F)cc(-c5ccc(C(F)(F)F)cc5)nc34)n2)cn1	257 °C
CCOC(=O)c1c(C)cc2c(c1C)C(=O)OC2(C)O (stereo not given)	118 to 120 °C

* * *

Measured melting point, listed per entry.

molecule	melting point
ClC1CCCOC1c1ccccc1 (stereo not given)	39.5 to 40.5 °C
NCCc1ccc(OCCC(c2ccc(Cl)cc2)(c2ccc(Cl)cc2)c2ccc(Cl)cc2)cc1	132 to 135 °C
CCOC(=O)C1CCC2(C)C(=CC(=O)C3C4CCC(=O)C4(C)CCC32)C1 (stereo not given)	187 to 188 °C
CSC(=S)N1Cc2c(c3ccccc3n2C)CC1C(=O)O (stereo not given)	212 to 213 °C
Cc1c(NC(=O)c2ccc(OC[C@@H]3CCCO3)cc2)ccc2[nH]c(CNC3CCCC3)cc12	191 to 192 °C

* * *

Measured melting point, listed per entry.

molecule	melting point
COC(=O)C1=C(C)NC(C)=C(C(=O)OCCN)C1c1cccc2c(=O)c(C)c(-c3ccccc3)oc12 (centres undefined)	188 to 192 °C
O=c1cc(CCO)c2cc(F)ccc2n1Cc1cc(Br)c(Br)c(Br)c1	135 to 140 °C
CN1C(=O)CCC2(C)c3ccc(Sc4ccncc4)cc3CCC12 (single isomer, unassigned; (+))	157 to 158 °C
O=C1CCCc2cc(OCc3cncnc3)ccc21	146 to 147 °C
CCc1nc2c(N)nc3ccccc3c2n1CCCS(=O)(=O)NC	225 to 228 °C
CC(=O)OC1CSC(Sc2ccccc2S(C)(=O)=O)C(OC(C)=O)C1OC(C)=O (centres undefined)	209 °C
CN1c2cccc3c2N(CCC3)S1(=O)=O	103 to 104 °C
COC(=O)c1ccc(C)c(-n2c(C)cc(OCc3ccccc3CNC(=O)Nc3cc(C(C)(C)C)nn3-c3ccc(O)c(Cl)c3)c(Cl)c2=O)c1	185 to 186 °C
CCCCc1n[nH]c(=S)n(N)c1=O	131 °C

* * *

Measured melting point, listed per entry.
measurementLabel: melting point

compound	recordedValue
CS(=O)(=O)NC(CCC(O)(Cn1cncn1)c1ccc(F)cc1F)C(=O)O (stereo unspecified)	165 to 173 °C
CCN1c2ccc(C#N)cc2N(CCCCS(=O)(=O)O)C1C (stereo unspecified)	> 260 °C
Cc1ncc(CCC(=O)O)s1	120 °C
CC(C)N1c2ccccc2N(C(C)C)c2ccccc21	80 to 81 °C
CC(=O)Nc1c(OC(C)=O)cc(C(=O)O)cc1[N+](=O)[O-]	196 to 201 °C
CCCSC1(C(F)(F)F)C=NC(=O)Nc2ccc(Cl)cc21 (stereo unspecified)	156 to 157 °C
CSc1sc(C=O)cc1C=O	135 to 137 °C
COc1ccc(N2C(=O)N(c3cccc(C#N)c3)c3nc(Nc4cccc(CCO)c4)ncc3C2C)cc1 (stereo unspecified)	195 to 200 °C
COCOc1ccc(C(=O)c2ccc(OCc3nc(-c4ccccc4)oc3C)cc2)c(O)c1	105 to 107 °C
CC(C)(C)c1ccc(CN2CCNC2=O)cc1	122 to 127 °C
Cc1cc(C)c(/C=C/C=O)c(Br)c1	99 to 103 °C
COC(=O)c1cncc(N(C)C(=O)C(C)CSC(C)=O)c1 (stereo unspecified)	123 to 125 °C
COC(=O)c1cc(F)c(N2CCN(C(C)=O)CC2)nc1Nc1ccc(F)cc1F	172 to 173 °C
COc1nc2cc(Cl)c(Cl)c(C#Cc3ccccc3)c2nc1OC	170 to 172 °C
CC(=O)N1CCCc2c(c3ccc(-n4ccc(-c5ccc(C(F)(F)F)nc5)cc4=O)cc3n2C)C1	156 to 162 °C
C=CCOc1ccccc1-c1ccc(C#N)cc1	68 to 69 °C
O=C1C(=O)N(Cc2ccc(C(F)(F)F)o2)c2cccc(Cl)c21	148 to 150 °C
Cc1ccc2c(c1)C(=O)C(=O)N2CCCN(C(C)C)C(C)C	87 to 89 °C
CC1(C)CN(S(=O)(=O)c2ccccc2F)c2cccc(Br)c2O1	108 to 110 °C
NCc1ccn(C2=CC3=C(CC2)CCc2[nH]c(=O)c(=O)n(OCC(=O)O)c23)c1	> 300 °C
O=C(NC1C2CC3CC(C2)CC1C3)N1CCC2(C=Cc3ccccc32)CC1 (stereo unspecified)	189 to 191 °C

* * *

Measured melting point, listed per entry.
measurementLabel: melting point

molecule	recordedValue
CCCc1c(OCCCOc2ccc(CC(=O)O)cc2)ccc(C(C)=O)c1O	106 to 108 °C
O=c1oc(-c2ccccc2)cc(O)c1C(CC1CC1)SC1CCCC1 (stereo not given)	75 to 80 °C
CC(=Cc1ccccc1)c1ccc2c(c1)SCC(C)(C)CS2	45 to 48 °C
O=c1c2cn(Cc3ccccc3F)c3ccccc3c-2nn1-c1ccc(Cl)cc1	338 to 339 °C
CCOC(=O)CC(=O)c1cc2cc(F)c(F)c(F)c2nc1Cl	78 to 80 °C
CCCN1C(=O)C2CC(c3ccc([N+](=O)[O-])cc3)(C2)C1=O	149 to 151 °C
O=C1NCCc2ccccc2C1c1ccccc1 (stereo not given)	95 to 96 °C
CC1=C(C(=O)OC(C)C)C(c2cccc([N+](=O)[O-])c2)C(C(=O)O)=NN1 (stereo not given)	195 °C
CNCCOc1ccc2nc(SCc3ccc(Cl)cc3)sc2c1	56 to 58 °C
CONc1nc(-c2ccccc2)c2cc(Cl)ccc2n1	174 °C

* * *

Measured melting point, listed per entry.

compound	melting point
CCCCCCCCCCCCCCSc1ccc(Cl)c(N)c1	60.5 to 61.5 °C
Cc1c2n(c3ccccc13)C(=O)C(=Cc1ncn(S(=O)(=O)N(C)C)c1C)CC2	200 to 205 °C
O=[N+]([O-])c1nccn1C(Br)CBr (centres undefined)	102 to 106 °C
CC(CN1CCCC1)N1c2ccccc2Sc2ccc(C(=O)NC3CCCC3)cc21 (racemic)	132 °C
Cc1ccc(F)c2c1N(CC1CCCO1)C(=O)C21COc2cc3c(cc21)CCO3 (centres undefined)	175 to 176 °C
COc1ccc(CNC(=O)c2cc3c(=O)n(Cc4ccc([N+](=O)[O-])nc4)c(=O)n(C)c3s2)cc1	238 to 241 °C
COC(=O)Nc1nc2cc(F)c(OC(C)c3c(Cl)cccc3Cl)cc2[nH]1 (centres undefined)	240 to 245 °C
CCCCCCNc1ccccc1CC(=O)Nc1c(C(C)C)cccc1C(C)C	110 to 112 °C
O=C(CC1CCCC1)Nc1ccc2cccc(OS(=O)(=O)C(F)(F)F)c2c1	111 to 116 °C

* * *

measurementLabel: melting point

compound	measurementLabel	recordedValue
O=C(NCc1ccccn1)Nc1cc(N2C(=O)CCc3ccccc32)ccn1	melting point	194 to 195 °C
NC(=O)c1c(Cl)c(-c2ccccc2)n2c1CN(C(=O)CCC1CCCC1)CC2	melting point	172 to 174 °C
CC(C)(C)OC(=O)NC(C)(C)c1ccc(C(=O)O)cc1	melting point	205 to 208 °C
CC1(C)COC(=O)N1c1nc(-c2sc(C#N)cc2Br)cs1	melting point	230 to 234 °C
CCOC(=O)Cn1c(=O)c(=O)[nH]c2ccc3ccc([N+](=O)[O-])cc3c21	melting point	> 250 °C
CCCc1nn(C)c2c(=O)n(CCCOc3ccc(SC(C)(C)C(=O)OCC)cc3)c(CC)nc12	melting point	52 to 54 °C
CCN(CC)CC#CCCC(=O)C(O)(c1ccccc1)C1CCCCC1 (stereo not given)	melting point	112 to 115 °C
N#CCCn1ccc(NC(=S)NCC(F)(F)F)n1	melting point	164 to 165 °C
COc1cc(C=CC=C2OC(=O)NC2=O)ccc1OCc1coc(-c2ccccc2)n1	melting point	227 to 228 °C
CS(=O)(=O)c1csc(CC(=O)C(=O)c2ccc(F)cc2)c1	melting point	174 to 175 °C

* * *

Measured melting point, listed per entry.

compound	melting point
Cc1noc(CC(N)=O)n1	77 to 77.5 °C
COc1ccccc1-n1c(C(S)c2ncnc3[nH]cnc23)nc2cccc(Cl)c2c1=O (stereo not given)	237 °C
CC(=O)Nc1ccc(C2=NNC(=O)NC2C)cc1 (stereo not given)	272 to 273 °C
O=C(O)COc1cccc2c1CCc1sc(SC(c3cccc(F)c3)c3cccc(F)c3)nc1-2	155 to 158 °C
COc1cc(C)cc2c(=O)oc3c(c12)C(=O)c1cccc(O)c1C3=O	282 to 292 °C
